Cited source for all entries: ChEMBL document CHEMBL4619772

# testName: Inhibition of pseudotyped HIV/EBOV GP infected in human A549 cells assessed as reduction in virus entry measured after 48 hrs by luciferase reporter gene assay
# Type: cell-based, Ebolavirus
# conditionContext: Orthoebolavirus, A549, 48 h
pEC50: −log10 of the molar value.
If the reported pEC50 equals or exceeds 6, assign Y. If not, assign N.

>>> print(df.to_string())
                                    compound  cat
 0  O=C(Nc1ccc(C2CCCCC2)cc1)c1ccc(CN2CCCCC2)c(F)c1    Y
 1  O=C(c1ccc(CN2CCCCC2)cc1)N1CCc2ccc(C(F)(F)F)cc21    N
 2  CC(c1ccc(C(=O)Nc2ccc(C3CCCCC3)cc2)cc1)N1CCCCC1 (stereo unspecified)    Y
 3  O=C(Nc1ccc(C(F)(F)F)cc1)c1ccc(CN2CCCCC2)s1    N
 4  O=C(Nc1ccc(C(F)(F)F)cc1)c1ccc(CN2CCCCC2)cc1    N
 5  O=C(Nc1ccc(C2CC2)cc1)c1ccc(CN2CCCCC2)cc1    N
 6  O=C(Nc1cccc(C(F)(F)F)c1)c1ccc(CN2CCCCC2)cc1    N
 7  CN(C)CCOc1ccc(/C(=C(/CCCl)c2ccccc2)c2ccccc2)cc1 [TOREMIFENE]    Y
 8  CC1(C)CN(C(=O)c2ccc(CN3CCCCC3)cc2)c2ccccc21    N
 9  CC1CCN(c2ccc(NC(=O)c3ccc(CN4CCOCC4)cc3)cc2C(F)(F)F)CC1    Y
10  O=C(Nc1ccc(C(F)(F)F)c(Cl)c1)c1ccc(CN2CCCCC2)cc1    N
11  CC(c1ccc(C(=O)N2CCc3cc(C(C)(C)C)ccc32)cc1)N1CCCCC1 (stereo unspecified)    N
12  CC(c1ccc(C(=O)N2CC(C(C)(C)C)c3ccccc32)cc1)N1CCCCC1 (stereo unspecified)    Y
13  O=C(c1ccc(CN2CCCCC2)cc1)N1CCc2ccc(Cl)cc21    N
14  O=C(Nc1ccc(C23CC4CC(CC(C4)C2)C3)cc1)c1ccc(CN2CCCCC2)cc1    Y
15  COC(=O)c1ccc(NC(=O)c2ccc(CN3CCCCC3)cc2)cc1    N
16  O=C(Nc1ccc(C23CC4CC(CC(C4)C2)C3)cc1)c1ccc(CN2CCOCC2)cc1    Y
17       O=C(NCCC1CCCCC1)c1ccc(CN2CCCCC2)cc1    N
18  CC(c1ccc(C(=O)N2CCc3ccc(C(F)(F)F)cc32)cc1)N1CCCCC1 (stereo unspecified)    N
19  CC(C)c1ccc(NC(=O)c2ccc(CN3CCCCC3)cc2)cc1    N
20  CC(C)(C)c1ccc(NC(=O)c2ccc(CN3CCCCC3)cc2)c(C(C)(C)C)c1    Y
